- tgt: CDK2 (Homo sapiens, UniProt P24941)
- Construct: endogenous in cells; host or cells: MDA-MB-231
- testDescription: CDK protein degradation activity (Western blotting), CDK2
- Assay type: cell-based
- conditionSet: MDA-MB-231 cells, 10 μM, 16 hours, Western blot
- Experimental: In order to evaluate the CDK protein degradation activity of the compounds according to the present invention, the following experiment was conducted. MDA-MB-231 cells were seeded at 5×10^5 cells per well in a 6-well plate. The next day, the compounds were treated in each well to achieve final concentrations of 100 nM, 1 μM, and 10 μM. […] Cell lysates were quantified and separated by size using sodium dodecyl sulfate-polyacrylamide gel electrophoresis (SDS-PAGE). […]
endpointLabel: Enzyme degradation CDK2 (% remaining) @ 10 μM

INSERT INTO measurements (compound, resultvalue) VALUES
  ('O=C1CC[C@H](N2C(=O)c3cccc(NCC(=O)N4CCC(CN5CCN(c6ccc(Nc7ncnc8c7ncn8C7CC(NC(=O)c8cccc(F)n8)C7)cc6)CC5)CC4)c3C2=O)C(=O)N1 (stereo partly drawn) [Compound 430]', '10/10/10%'),
  ('O=C1CC[C@H](n2nnc3ccc(N4CCC(CN5CCN(c6ccc(Nc7ncnc8c7ncn8C7CC(NC(=O)c8c(Cl)cccc8Cl)C7)cc6)CC5)CC4)cc3c2=O)C(=O)N1 (stereo partly drawn) [Compound 371]', '0/0/0%');

Now take the following compound into account.
Answer with the recorded Enzyme degradation CDK2 (% remaining) @ 10 μM for the compound listed here: O=C1CC[C@H](N2C(=O)c3ccc(N4CCC(C(=O)N5CCN(C6CCN(c7ccc(Nc8ncnc9c8ncn9C8CC(NC(=O)Cc9ccccc9)C8)cc7)CC6)CC5)CC4)cc3C2=O)C(=O)N1 (stereo partly drawn) [Compound 365]
60/60/60%
